assay: Photo-DSC/DSC cationic curing activity of PAGs in ERL-4221; settings: ERL-4221; DSC scan after light exposure
property: DSC after PDSC Peak Max (°C)
Answers are plain numbers, in °C.

Hi there! I need DSC after PDSC Peak Max for each item below, if you can.
1. CC(C)(C)c1ccc([I+]c2ccc(C(C)(C)C)cc2)cc1.CC(C)(C)c1ccc([I+]c2ccc(C(C)(C)C)cc2)cc1.O=S(=O)([O-])C(F)(F)C(F)(F)C(F)(F)S(=O)(=O)[O-] [PAG1, [(p-(CH3)3C—C6H4)2I^+]2-O3S(CF2)3SO3—]
2. CC(C)(C)c1ccc([I+]c2ccc(C(C)(C)C)cc2)cc1.O=S(=O)([O-])C(F)(F)C(F)(F)C(F)(F)C(F)(F)C(F)(F)C(F)(F)C(F)(F)C(F)(F)F [DTBPI-PFOS, reference compound]
3. CC(C)(C)c1ccc([I+]c2ccc(C(C)(C)C)cc2)cc1.CC(C)(C)c1ccc([I+]c2ccc(C(C)(C)C)cc2)cc1.O=S(=O)([O-])C(F)(F)C(F)(F)C(F)(F)C(F)(F)S(=O)(=O)[O-] [PAG2, [(p-(CH3)3C—C6H4)2I^+]2-O3S(CF2)4SO3—]
4. CC(C)(C)c1ccc([I+]c2ccc(C(C)(C)C)cc2)cc1.O=S(=O)([O-])C(F)(F)C(F)(F)C(F)(F)C(F)(F)F [DTBPI-ONf, reference compound]

1. 148
2. 155
3. 142
4. 148
